The molecules listed here are annotated with their inhibition.
- TARGET_UNDER_TEST: Microphthalmia-associated transcription factor (Homo sapiens)
- TEST_METHOD_NOTES: MITF inhibitors, primary screen, biochemical, AlphaScreen, human (AID 1259374);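 further: 0% = vehicle wells with protein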
- ASSAY_SETUP: AlphaScreen MITF homodimerization, bead proximity signal; at 2.6 µM; stronger effect = higher value
The campaign covered roughly 650,000 compounds. About 5,900 (0.91%) were called active. Shown is part of a subset that was picked to be rich in actives.
Supply the numeric figure in %, leaving out any unit text.

Use these answered entries as a reference point.
# MOLECULE, UNIT_DESCRIPTOR, inhibition
rows = [
    ("COc1ccc(CN2CCN(C3CCC(C)CC3)CC2)c(OC)c1OC (stereo not given)", "%", 63.1),
    ("CCOC(=O)CSc1ccc(C(=O)N2CCN(Cc3ccc(OC)c(OC)c3OC)CC2)cc1[N+](=O)[O-]", "%", -5.49),
    ("CC(=O)c1cccc(-c2ncc(C)c(N)n2)c1", "%", 0.72),
    ("OCC1CCN(C2CCCN(Cc3cccc(-c4ccco4)c3)C2)CC1 (stereo not given)", "%", 3.07),
]

Next up:
Input: Supply recorded inhibition for O=S(=O)(c1ccc(-c2csc(N3N=C(c4cccs4)CC3c3ccc(F)cc3)n2)cc1)N1CCCCC1 (stereo not given) here.
Output: 12

###

The molecules listed here are annotated with their inhibition.
- TARGET_UNDER_TEST: Microphthalmia-associated transcription factor (Homo sapiens)
- TEST_METHOD_NOTES: MITF inhibitors, primary screen, biochemical, AlphaScreen, human (AID 1259374);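 further: 0% = vehicle wells with protein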
- ASSAY_SETUP: AlphaScreen MITF homodimerization, bead proximity signal; at 2.6 µM; stronger effect = higher value
The campaign covered roughly 650,000 compounds. About 5,900 (0.91%) were called active. Shown is part of a subset that was picked to be rich in actives.
Supply the numeric figure in %, leaving out any unit text.

Use these answered entries as a reference point.
# MOLECULE, TARGET_UNDER_TEST, ASSAY_METRIC, UNIT_DESCRIPTOR, NUMERIC_RESULT
records = [
    ("COc1cc(-c2cn[nH]c2)ccc1C(=O)NCC(C)c1cccs1 (stereo not drawn)", "Microphthalmia-associated transcription factor (Homo sapiens)", "inhibition", "%", 0.52),
    ("CN(C(=O)c1ccccc1)c1cccc(N)c1", "Microphthalmia-associated transcription factor (Homo sapiens)", "inhibition", "%", -4.8),
    ("CC(=O)C1=C(O)C(=O)N(CCCN(C)C)C1c1ccc(Br)cc1 (stereo not drawn)", "Microphthalmia-associated transcription factor (Homo sapiens)", "inhibition", "%", 4.38),
    ("Cc1ccnc(NC(c2ccccc2Cl)c2ccc3cccnc3c2O)c1 (stereo not drawn)", "Microphthalmia-associated transcription factor (Homo sapiens)", "inhibition", "%", 22.3),
]

Input: Fetch value of inhibition on Microphthalmia-associated transcription factor (Homo sapiens) for "Cc1nn(C)c(C)c1NC(=O)Cn1nc2n(Cc3ccc(F)cc3)c3ccccc3n2c1=O" .
Output: 12.6

Input: Fetch value of inhibition on Microphthalmia-associated transcription factor (Homo sapiens) for "O=C(CSc1ncnc2nc[nH]c12)c1ccc(O)c(O)c1" .
Output: 82.1

Input: Fetch value of inhibition on Microphthalmia-associated transcription factor (Homo sapiens) for "CCNc1nc(NC(C)C)nc(OCCOC(C)=O)n1" .
Output: -3.21

Input: Fetch value of inhibition on Microphthalmia-associated transcription factor (Homo sapiens) for "Cn1c(N)c(C(=O)CSc2ncnc3nc[nH]c23)c(=O)n(C)c1=O" .
Output: 10.9

Input: Fetch value of inhibition on Microphthalmia-associated transcription factor (Homo sapiens) for O=C(Nc1ccccc1)C(Cc1ccccc1)N1C(=O)c2ccccc2C1=O (stereo not drawn) .
Output: 3.18

Input: Fetch value of inhibition on Microphthalmia-associated transcription factor (Homo sapiens) for CC(C)CC(C(=O)O)N1C(=O)c2ccccc2C1=O (stereo not drawn) .
Output: 6.74

Input: Fetch value of inhibition on Microphthalmia-associated transcription factor (Homo sapiens) for "O=C(Nc1sc2c(c1C(=O)Nc1ccccc1)CCCCC2)c1ccncc1" .
Output: 17.1

Input: Fetch value of inhibition on Microphthalmia-associated transcription factor (Homo sapiens) for CCOc1ccc(C(NC(=O)c2cc(OC)c(OC)c(OC)c2)c2cc(Cl)c3cccnc3c2O)cc1 (stereo not drawn) .
Output: 17.1

Input: Fetch value of inhibition on Microphthalmia-associated transcription factor (Homo sapiens) for CN(C)S(=O)(=O)c1ccc(C(=O)NCc2nnc(SCC(=O)N3N=C(c4cccs4)CC3c3ccc(F)cc3)n2C)cc1 (stereo not drawn) .
Output: -5.15

Input: Fetch value of inhibition on Microphthalmia-associated transcription factor (Homo sapiens) for "COc1cc(/C=N/n2c(-c3ccncc3)n[nH]c2=S)cc(OC)c1OC(C)=O" .
Output: 6.48

Input: Fetch value of inhibition on Microphthalmia-associated transcription factor (Homo sapiens) for "Cc1ccc(NC(=O)c2c(N)sc3c2CCCCC3)cc1" .
Output: -9.3

Input: Fetch value of inhibition on Microphthalmia-associated transcription factor (Homo sapiens) for "CCNc1nc(NCC)nc(C(=O)O)n1" .
Output: 55.1

Input: Fetch value of inhibition on Microphthalmia-associated transcription factor (Homo sapiens) for O=C(Cc1ccccc1)NC(c1ccc(Cl)cc1)c1ccc2cccnc2c1O (stereo not drawn) .
Output: -1.99

Input: Fetch value of inhibition on Microphthalmia-associated transcription factor (Homo sapiens) for Oc1c(C(Nc2ccccn2)c2ccc(OC(F)F)cc2)ccc2cccnc12 (stereo not drawn) .
Output: 12.2

Input: Fetch value of inhibition on Microphthalmia-associated transcription factor (Homo sapiens) for COc1cccc(C2C(C(=O)OC(C)C)=C(C)NC3=C2C(=O)CC(c2ccc(Cl)cc2)C3)c1OC (stereo not drawn) .
Output: -2.22

Input: Fetch value of inhibition on Microphthalmia-associated transcription factor (Homo sapiens) for Oc1c(C(Nc2ccccn2)c2cccnc2)ccc2cccnc12 (stereo not drawn) .
Output: 58.1

Input: Fetch value of inhibition on Microphthalmia-associated transcription factor (Homo sapiens) for "CCS(=O)(=O)N1CCC(N2CCN(c3ccccc3)CC2)CC1" .
Output: 11.4

Input: Fetch value of inhibition on Microphthalmia-associated transcription factor (Homo sapiens) for "CCCN1CCC(N2CCN(c3cccc(Cl)c3)CC2)CC1" .
Output: 15

Input: Fetch value of inhibition on Microphthalmia-associated transcription factor (Homo sapiens) for "CCNc1nc(OC)cc(OC)n1" .
Output: -5.7

###

- TARGET_UNDER_TEST: Microphthalmia-associated transcription factor (Homo sapiens)
- TEST_METHOD_NOTES: MITF inhibitors, primary screen, biochemical, AlphaScreen, human (AID 1259374);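 further: 0% = vehicle wells with protein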
- ASSAY_SETUP: AlphaScreen MITF homodimerization, bead proximity signal; at 2.6 µM; stronger effect = higher value
Out of some 650,000 compounds screened, about 5,900 (0.91%) were called active. The list comes from a sample in which actives are over-represented; it also holds close analogues and randomly drawn compounds.
Hi, to clarify the labels: Condition met covers inhibition from 3% upward, Condition not met covers anything below 3%.

# COMPOUND, TARGET_UNDER_TEST, DISCRETE_LABEL
records = [
    ("Cc1ccc(N(C2C=CS(=O)(=O)C2)S(=O)(=O)c2ccc(Br)cc2)cc1 (stereo not given)", "Microphthalmia-associated transcription factor (Homo sapiens)", "Condition met"),
    ("Nc1nccc(-c2ccc3nc(C4COc5ccc(Br)cc5C4)[nH]c3c2)n1 (stereo not given)", "Microphthalmia-associated transcription factor (Homo sapiens)", "Condition met"),
]

Input: Could you please find out whether CC(C)(CO)NC(=O)CCC1(Cc2ccc3ccccc3c2)CCC(=O)N1 (stereo not given) has inhibition that meets 3% or exceeds it?
Output: Condition met

Input: Could you please find out whether "NC(=O)CC[C@H](NC(=O)c1ccc(F)cc1)C(=O)OCC(=O)c1ccccc1" has inhibition that meets 3% or exceeds it?
Output: Condition not met

Input: Could you please find out whether CC1CCC(C(C)C)C(OC(=O)COC(=O)c2cnccn2)C1 (stereo not given) has inhibition that meets 3% or exceeds it?
Output: Condition not met

###

- TARGET_UNDER_TEST: Microphthalmia-associated transcription factor (Homo sapiens) (UniProt O75030)
- Sequence (O75030 whole entry, looked up): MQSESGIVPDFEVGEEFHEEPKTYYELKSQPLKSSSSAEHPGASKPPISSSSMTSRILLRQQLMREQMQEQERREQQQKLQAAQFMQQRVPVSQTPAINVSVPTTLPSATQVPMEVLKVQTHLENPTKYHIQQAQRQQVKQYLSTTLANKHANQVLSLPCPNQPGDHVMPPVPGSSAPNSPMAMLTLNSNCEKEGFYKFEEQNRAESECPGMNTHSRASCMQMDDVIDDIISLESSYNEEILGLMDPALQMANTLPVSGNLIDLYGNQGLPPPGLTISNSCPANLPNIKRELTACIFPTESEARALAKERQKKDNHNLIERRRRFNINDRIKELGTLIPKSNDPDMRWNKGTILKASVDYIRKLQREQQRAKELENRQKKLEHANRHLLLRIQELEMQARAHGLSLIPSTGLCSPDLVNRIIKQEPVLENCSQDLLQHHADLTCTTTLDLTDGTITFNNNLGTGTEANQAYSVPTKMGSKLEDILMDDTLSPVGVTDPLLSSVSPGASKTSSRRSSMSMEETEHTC
- TEST_METHOD_NOTES: MITF inhibitors, primary screen, biochemical, AlphaScreen, human (AID 1259374);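 further: 0% = vehicle wells with protein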
- ASSAY_SETUP: AlphaScreen MITF homodimerization, bead proximity signal; at 2.6 µM; stronger effect = higher value
About 5,900 (0.91%) of roughly 650,000 compounds were called active. Only a selection was taken, and actives are over-represented in it overall.
ASSAY_METRIC: inhibition (%)
Supply the numeric figure in %, leaving out any unit text.

Use these answered entries as a reference point.
# COMPOUND, UNIT_DESCRIPTOR, inhibition
data = [
    ("COc1ccc(C(=O)COC(=O)c2c3c(nc4ccccc24)CCCC3)cc1OC", "%", 0.37),
    ("CC1CN(CCOc2ccc(Cl)c3ccccc23)CC(C)O1 (stereo not drawn)", "%", 27.1),
    ("C=CCOc1ccc(C2Nc3ccccc3-c3nnc(SC)nc3O2)cc1 (stereo not drawn)", "%", 3.95),
]

Input: Supply recorded inhibition for "c1ccc(CCCCNc2nccc(Nc3ccncn3)n2)cc1" here.
Output: 61.3

Input: Supply recorded inhibition for "N/C(=N\OC(=O)c1cccc(F)c1)c1ccc(Cl)cc1" here.
Output: 17.5

Input: Supply recorded inhibition for "COc1cc(Nc2ncnc3c2nc(N2CCOCC2)n3C(C)C)cc(OC)c1OC" here.
Output: 54.5

Input: Supply recorded inhibition for "Cc1cc(C)c(S(=O)(=O)N(C)CCO)cc1N(C)S(=O)(=O)c1ccc(Cl)cc1" here.
Output: -12

Input: Supply recorded inhibition for "CC(C)n1c(N2CCOCC2)nc2c(Nc3ccc(Oc4ccccc4)cc3)ncnc21" here.
Output: 9.27

Input: Supply recorded inhibition for "Nc1nc(NCCO)cc(Nc2ccc(C(F)(F)F)cc2)n1" here.
Output: -1.49

Input: Supply recorded inhibition for "O=C(N/N=C/c1cc(Br)ccc1O)c1ccc(=O)[nH]n1" here.
Output: 80.2

Input: Supply recorded inhibition for "Cc1ccccc1C(=O)Nc1ccc(S(=O)(=O)NCc2ccccc2)cc1" here.
Output: 5.75

Input: Supply recorded inhibition for "c1ccc(CCCNc2nccc(Nc3ccncn3)n2)cc1" here.
Output: 10.6

Input: Supply recorded inhibition for COC(=O)C1(C)NC(c2ccccc2OC)C2C(=O)N(c3ccccc3)C(=O)C21 (stereo not drawn) here.
Output: 17.7

Input: Supply recorded inhibition for "O=C(c1cccs1)N1CCN(S(=O)(=O)c2ccc(Cl)cc2)CC1" here.
Output: -0.92

Input: Supply recorded inhibition for "c1ccc(CCNc2nccc(Nc3ccncn3)n2)cc1" here.
Output: -8.19

Input: Supply recorded inhibition for COC(=O)C1(C)NC(c2ccc(C)cc2)C2C(=O)N(c3ccc(F)cc3)C(=O)C21 (stereo not drawn) here.
Output: 77.9

Input: Supply recorded inhibition for "COc1cc(Nc2ncnc3c2nc(N2CCN(Cc4ccc5c(c4)OCO5)CC2)n3C(C)C)cc(OC)c1OC" here.
Output: 5.48

Input: Supply recorded inhibition for CC1SC2(CCCCC2)N(c2ccc(F)cc2)C1=O (stereo not drawn) here.
Output: -0.68

These entries and their values trace back to PubChem BioAssay AID1259374.
